measurementTarget: T1, 6His-AviTag-linked cynomolgus monkey IL-33 (residues 112 to 269) (cynomolgus monkey, UniProt O95760 112-269 (human entry), biotin on the AviTag portion (BirA) in the SPR of Example 7; used without biotinylation in Example 10)
T1 construct: GenBank EHH57404 printed; also called cynomolgus monkey IL-33 protein; mature cynomolgus monkey IL-33
T1 chain: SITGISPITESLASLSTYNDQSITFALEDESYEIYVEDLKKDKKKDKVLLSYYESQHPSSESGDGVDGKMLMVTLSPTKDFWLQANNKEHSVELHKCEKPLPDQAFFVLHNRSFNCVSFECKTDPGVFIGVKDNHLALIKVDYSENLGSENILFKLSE
assayOverview: SPR, IL-33 on chip, Fab supernatant as analyte
measure: koff (s⁻¹)
Number only, in s⁻¹; omit the unit.

Inquiry: Could you tell me which koff is on file for A25-2C02 (Fab) (Fab, V domains shown, Fab secreted by E. coli, tested as culture supernatant; also called V15) VH: EVQLLESGGGLVQPGGSLRLSCAASGFTFSNYYMHWVRQAPGKGLEWVSSISARSSYIYYADSVKGRFTISRDNSKNTLYLQMNSLRAEDTAVYYCARLATRNNAFDIWGQGTLVTVSS VL: QSVLTQPPSASGTPGQRVTISCSGSSSNIGRNAVNWYQQLPGTAPKLLIYASNMRVSGVPDRFSGSKSGTSASLAISGLRSEDEADYYCWAWDDSQKVGVFGGGTKLTVL ?
Reply text: 1e-05

Inquiry: Could you tell me which koff is on file for A27-1C06 (Fab) (Fab, V domains shown, Fab secreted by E. coli, tested as culture supernatant; also called V22) VH: EVQLLESGGGLVQPGGSLRLSCAASGFTFSNYYMHWVRQAPGKGLEWVSSISARSSYIYYADSVKGRFTISRDNSKNTLYLQMNSLRAEDTAVYYCARLATRHSAFDIWGQGTLVTVSS VL: QSVLTQPPSASGTPGQRVTISCSGSSSNIGNNAVNWYQQLPGTAPKLLIYASNMRRLGVPDRFSGSKSGTSASLAISGLRSEDEADYYCGAWDDSQKAFVFGGGTKLTVL ?
Reply text: 1.14e-05

Inquiry: Could you tell me which koff is on file for A23-1A05 (Fab) (Fab, V domains shown, Fab secreted by E. coli, tested as culture supernatant; also called V8) VH: EVQLLESGGGLVQPGGSLRLSCAASGFTFSNYYMHWVRQAPGKGLEWVSSISARSRYHYYADSVKGRFTISRDNSKNTLYLQMNSLRAEDTAVYYCARLATRHNAFDIWGQGTLVTVSS VL: QSVLTQPPSASGTPGQRVTISCSGSSSNIGNNAVSWYQQLPGTAPKLLIYASNMRVIGVPDRFSGSKSGTSASLAISGLRSEDEADYYCGAWDDSQKALVFGGGTKLTVL ?
Reply text: 2.61e-05

Inquiry: Could you tell me which koff is on file for A10-1C04 (Fab) (Fab, V domains shown, Fab secreted by E. coli, tested as culture supernatant; also called V1) VH: EVQLLESGGGLVQPGGSLRLSCAASGFTFSDYYMNWVRQAPGKGLEWVSSISRYSSYIYYADSVKGRFTISRDNSKNTLYLQMNSLRAEDTAVYYCARDIGGMDVWGQGTLVTVSS VL: QSVLTQPPSASGTPGQRVTISCTGSSSNIGAVYDVHWYQQLPGTAPKLLIYRNNQRPSGVPDRFSGSKSGTSASLAISGLRSEDEADYYCQTYDSSRWVFGGGTKLTVL ?
Reply text: 0.000165

Inquiry: Could you tell me which koff is on file for A28-2G07 (Fab) (Fab, V domains shown, Fab secreted by E. coli, tested as culture supernatant; also called V27) VH: EVQLLESGGGLVQPGGSLRLSCAASGFTFSSYYMHWVRQAPGKGLEWVSSISARSSYIYYADSVKGRFTISRDNSKNTLYLQMNSLRAEDTAVYYCARLATRRIAFDIWGQGTLVTVSS VL: QSVLTQPPSASGTPGQRVTISCSGSSSNIGRNAVNWYQQLPGTAPKLLIYASNMRRPGVPDRFSGSKSGTSASLAISGLRSEDEADYYCSAWDDSQKAGVFGGGTKLTVL ?
Reply text: 1.14e-05
